- appliedConditions: Ebola virus entry assay, ratio channel
Active and inactive are the calls of the source. How the calls were made is not given here.
Could you please pick one outcome from this set? yes (1) for active, no (0) for inactive

Example entries and their recorded answers appear below.
CCN(Cc1ccc(Cl)nc1)/C(=C/[N+](=O)[O-])NC: no (0)
CC1=C(CC(=O)O)c2cc(F)ccc2/C1=C\c1ccc(S(C)=O)cc1 (stereo not given): no (0)
Cc1ccc(/C=N/n2c(-c3ccccc3)csc2=S)cc1: no (0)
CC(Cc1ccccc1)NCc1ccccc1Cl (stereo not given): yes (1)

# evaluate next
input: I'd appreciate the recorded outcome for COc1ccc2[nH]cc(CCN(C(C)C)C(C)C)c2c1 from this test.
output: yes (1)

---

- assayProcedure: Primary qHTS for Huh7 cytotoxicity: counterscreen for inhibitors of MERS-S pseudotyped particle cell entry (AID 1479147)
- appliedConditions: cell viability read-out; series mostly up to 57.1 µM
Inconclusive results are not listed. Calls of active or inactive are those of the source. Calls come from the whole dose curve.
Log the outcome using a class from active, inactive

Illustrative cases are given below, each with its answer.
CC(C)N=C(N)/N=C(\N)Nc1ccc(Cl)cc1: inactive
CCN(CC)CCNC(C(=O)OCCC(C)C)c1ccccc1 (stereo not given): inactive
CC1=C(C(=O)OC(C)C)C(c2cccc([N+](=O)[O-])c2)C(C(=O)OC2CN(C(c3ccccc3)c3ccccc3)C2)=C(N)N1 (stereo not given): inactive
CCC(=O)C(CCN(C)C)(c1ccccc1)c1ccccc1: inactive
CCCN(CCC)C(=O)C(CCC(=O)O)NC(=O)c1ccccc1 (stereo not given): inactive

Moving on to the next compound.
input: GET /call?item= CCCc1cc(C(N)=S)ccn1 returns the recorded outcome of this test.
output: inactive

---

- appliedConditions: Ebola virus entry assay, green fluorescence channel
Results with a measured potency or affinity are listed apart.
measuredEndpoint: efficacy (%)
Report as a plain number; the unit % is understood.

Some solved entries appear below for comparison.
CN(C)CCCN1c2ccccc2Sc2ccccc21: 62.9
O=C1CN2CCOC2(c2ccccc2Cl)c2cc(Cl)ccc2N1 (centres undefined): 46.2
C[C@]12CC[C@H]3[C@@H](CCC4=CC(=O)CC[C@@]43C)[C@@H]1CC[C@@H]2C(=O)CO: 61.9
CC[N+](CC)(CC)CCOC(=O)C(C1CCCC1)C1CCCC1: 39.4
OC[C@@H](O)[C@@H](O)[C@H](O)[C@H](O)CO: 11.8
CO[C@]1(NC(=O)CSC(F)F)C(=O)N2C(C(=O)O)=C(CSc3nnnn3CCO)CO[C@H]21: -28.6
Cn1cc(C(=O)[C@@H]2CCc3nc[nH]c3C2)c2ccccc21: 15.9
O=C1c2ccccc2C(=O)C1c1ccccc1: 13.2

Measured efficacy of Cl/C(=C\n1cncn1)c1ccc(Cl)cc1Cl : -16.7

# efficacy of CCCCCCCCCCCCOS(=O)(=O)O = -26.4

Field efficacy (entry Clc1ccccc1-c1nc(-c2ccncc2)no1 ) reads -9.78

Noted for O=C(O)COC(=O)Cc1ccccc1Nc1c(Cl)cccc1Cl : its efficacy reads 31.8

Value of measured efficacy for the entry Cc1ccc(C(=O)Oc2ccc(C(O)CNC(C)(C)C)cc2OC(=O)c2ccc(C)cc2)cc1 (centres undefined) : 67.4

compound Clc1ccc(C(Cn2ccnc2)OCc2ccc(Sc3ccccc3)cc2)c(Cl)c1 (centres undefined) , efficacy observed: 29.2

---

- assayProcedure: qHTS of pediatric cancer cell lines to identify multiple opportunities for drug repurposing: Primary screen for BT-37 cells (AID 1347094)
- appliedConditions: BT-37 viability, CellTiter-Glo luminescence, 48 h; series mostly up to 57.3 µM
Records with an inconclusive call do not appear. The source made the active and inactive calls. Calls follow the shape of the dose curve; as a rule, active = well fitted cell-killing curve with a large enough effect; inconclusive = small, poorly fitted or top-dose-only effect; inactive = flat fitted curve, though single readings scatter.
Hi there, use one of these labels in your reply, thanks! y = active, n = inactive

Oc1ccc([C@H]2CNCc3c2ccc(O)c3O)cc1O: n

input: Query: recorded result category for CCCC[N+]1(C)[C@@H]2CC(OC(=O)[C@H](CO)c3ccccc3)C[C@H]1[C@@H]1O[C@@H]12 (stereo not given in full) in this test
output: n

input: Dear all, I need the recorded test outcome for Cc1cccc(Cc2cnc[nH]2)c1C , thank you.
output: n

input: Per the records of this test, what outcome belongs to NCc1cccnc1 ?
output: n

input: What did this assay record as the result for c1ccc2c(c1)Sc1ccccc1N2CC1CN2CCC1CC2 (stereo not given) ?
output: y

input: Look up the recorded call for CCN(CC)CCOC(=O)C(C)(c1ccccc1)c1ccccc1 in this test.
output: n

input: What is the recorded call for this molecule in the test? CCOC(=O)C(c1c(O)c2ccccc2oc1=O)c1c(O)c2ccccc2oc1=O
output: n

input: GET /call?item= CCOC(=O)NC(C)(C)Cc1ccc(Cl)cc1 returns the recorded outcome of this test.
output: n

input: Which result was noted for this molecule in the test: C[C@]12CC[C@H]3[C@@H](CCC4=CC(=O)CC[C@@H]43)[C@@H]1CC[C@@H]2O
output: n

input: How did this test come out for CCCC(C)C1(CC)C(=O)N=C(S)NC1=O (stereo not given) ?
output: n

input: Just curious, what result did OC(c1ccccc1)(c1ccccc1)C1CCNCC1 get here?
output: n
